Assay System: RD3
Test Summary: competition
Listed binders paired with reported Ki

Binder	Ki / µM
NHERF-2 PDZ2 (N2P2) PDZ2, Q15599 (protein) LRPRLCHLRKGPQGYGFNLHSDKSRPGQYIRSVDPGSPAARSGLRAQDRLIEVNGQNVEGLRHAEVVASIKAREDEARLLVVDPETD	4.6
MAGI-3 PDZ6 (M3P6) PDZ6, Q5TCQ9 (protein) GCYPVELERGPRGFGFSLRGGKEYNMGLFILRLAEDGPAIKDGRIHVGDQIVEINGEPTQGITHTRAIELIQAGGNKVLLLLRPGTGLI	6.8

Every entry's value here was drawn from paper PMC4970318.
